src = paper PMC7663056

Field: remaining activity at 5 µM. Provide a value for each of the compounds that follow.
Molecular target: Full length ERK3 (NanoLuc fusion) (Homo sapiens, UniProt Q16659)
Construct: Full length ERK3 was cloned into pFC32K (Promega, Madison, WI, USA); expressed in transfected cells; host or cells: HEK293T
Sequence (Q16659 whole entry, the tested form may be a part): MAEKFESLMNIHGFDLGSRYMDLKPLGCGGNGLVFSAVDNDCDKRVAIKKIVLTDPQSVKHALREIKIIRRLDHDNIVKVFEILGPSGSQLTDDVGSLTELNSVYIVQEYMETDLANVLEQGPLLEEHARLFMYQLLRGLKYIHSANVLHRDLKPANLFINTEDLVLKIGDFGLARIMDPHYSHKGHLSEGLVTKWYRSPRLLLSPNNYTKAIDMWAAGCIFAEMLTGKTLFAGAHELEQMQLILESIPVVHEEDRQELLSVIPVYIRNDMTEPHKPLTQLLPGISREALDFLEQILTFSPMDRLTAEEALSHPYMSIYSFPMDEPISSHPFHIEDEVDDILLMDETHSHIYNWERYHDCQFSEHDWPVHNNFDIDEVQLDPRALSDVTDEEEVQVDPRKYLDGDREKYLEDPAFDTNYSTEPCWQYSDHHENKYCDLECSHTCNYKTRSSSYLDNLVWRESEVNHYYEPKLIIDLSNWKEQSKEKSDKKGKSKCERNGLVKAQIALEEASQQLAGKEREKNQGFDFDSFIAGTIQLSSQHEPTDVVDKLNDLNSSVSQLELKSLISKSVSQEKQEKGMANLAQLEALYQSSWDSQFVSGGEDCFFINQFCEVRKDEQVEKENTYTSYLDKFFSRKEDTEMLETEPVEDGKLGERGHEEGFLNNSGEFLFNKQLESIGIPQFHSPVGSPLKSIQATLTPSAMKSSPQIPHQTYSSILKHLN
Test: Cell-based NanoBRET assay (tracer displacement) in HEK293T cells
Conditions: HEK-293T, 2 h; Table S3; single dose 5 µM; ratio to DMSO control; HEK293T; read-out: Norm.BRET 5 µM
Hi! Could you send only the number? It should be in %, unit omitted.

Return reported remaining activity at 5 µM; argument: `Cc1cnc(Nc2ccc(N3CCN(C)CC3)cc2)nc1Nc1cccc(S(=O)(=O)NC(C)(C)C)c1`
46.6

Return reported remaining activity at 5 µM; argument: `CCn1cc(-c2ccnc3[nH]c(-c4cccc(CN(C)C)c4)cc23)c(-c2ccc(NC(=O)N(C)C)cc2)n1`
56.8

Return reported remaining activity at 5 µM; argument: `Nc1cccc(-c2cc3c(Oc4cccc(O)c4)ncnc3[nH]2)c1`
54.2

Return reported remaining activity at 5 µM; argument: `CNC(=O)c1nn(C)c2c1C(C)(C)Cc1cnc(Nc3ccc(N4CCN(C)CC4)cc3)nc1-2`
40.9

Return reported remaining activity at 5 µM; argument: `CN(c1ncccc1CNc1nc(Nc2ccc3c(c2)CC(=O)N3)ncc1C(F)(F)F)S(C)(=O)=O`
76.8

Return reported remaining activity at 5 µM; argument: `O=C(c1ccc(Nc2nccc(-c3cc4ccccc4s3)n2)cc1)N1CCC(N2CCCC2)CC1`
28.8

Return reported remaining activity at 5 µM; argument: CC(C)CCN1c2nc(Nc3cc(F)c(O)c(F)c3)ncc2N(C)C(=O)C1C (stereo not drawn)
80.6

Return reported remaining activity at 5 µM; argument: `CCN1CCN(Cc2ccc(-c3cc4c(N[C@H](C)c5ccccc5)ncnc4[nH]3)cc2)CC1`
40

Return reported remaining activity at 5 µM; argument: `NC(=O)c1cnc(N[C@@H]2CCCC[C@@H]2N)nc1Nc1cccc(-n2nccn2)c1`
88.2

* * *

Target: Full length ERK3 (NanoLuc fusion) (Homo sapiens, UniProt Q16659)
Construct: Full length ERK3 was cloned into pFC32K (Promega, Madison, WI, USA); expressed in transfected cells; host or cells: HEK293T
Assay: Cell-based NanoBRET assay (tracer displacement) in HEK293T cells
Conditions: HEK-293T, 2 h; Table S3; single dose 10 µM; ratio to DMSO control; HEK293T; read-out: Norm.BRET 10 µM
Method: Full length ERK3 was cloned into pFC32K (Promega, Madison, WI, USA) for the expression of an […] NanoLuc fusion, and the plasmid was transfected into HEK293T cells cultured in DMEM (Gibco) supplemented with 10% fetal bovine serum (Gibco) and penicillin/streptamycin (Gibco, Thermo Fisher Scientific, Waltham, MA, USA). […] BRET luminescence (450 nm for donor emission and 610 nm for BRET signal) was measured using PHERAstar FSX plate reader (BMG Labtech, Ortenberg, Germany). […]
Field: remaining activity at 10 µM. Provide a value for each of the compounds that follow.
Hi! Could you send only the number? It should be in %, unit omitted.

Return reported remaining activity at 10 µM; argument: `O=C(Nc1c[nH]nc1-c1nc2ccc(CN3CCOCC3)cc2[nH]1)NC1CC1`
10.6

Return reported remaining activity at 10 µM; argument: `CCN1CCN(Cc2ccc(-c3cc4c(N[C@H](C)c5ccccc5)ncnc4[nH]3)cc2)CC1`
38.8

Return reported remaining activity at 10 µM; argument: `O=C(c1ccc(Nc2nccc(-c3cc4ccccc4s3)n2)cc1)N1CCC(N2CCCC2)CC1`
19.6

Return reported remaining activity at 10 µM; argument: `Oc1ccc2ccccc2c1SSc1c(O)ccc2ccccc12`
45.5

* * *

Biological target: ERK3 kinase domain (Homo sapiens)
Construct: The kinase domain of ERK3 (M9-I327) was subcloned into pNIC28–Bsa4; His6 (N, cleaved yes); made in house; host or cells: E. coli (co-expressed with lambda phosphatase)
Sequence (Q16659 9-327): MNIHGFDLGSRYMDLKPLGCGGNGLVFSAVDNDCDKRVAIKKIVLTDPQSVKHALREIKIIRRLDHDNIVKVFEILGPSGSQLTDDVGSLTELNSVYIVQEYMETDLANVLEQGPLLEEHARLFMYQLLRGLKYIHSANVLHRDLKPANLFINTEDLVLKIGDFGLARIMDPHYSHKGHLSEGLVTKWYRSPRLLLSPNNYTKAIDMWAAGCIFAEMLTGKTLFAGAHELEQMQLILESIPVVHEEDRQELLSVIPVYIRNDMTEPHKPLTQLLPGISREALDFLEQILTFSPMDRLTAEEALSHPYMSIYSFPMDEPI
Test: Melting temperature assay (differential scanning fluorimetry, DSF)
Assay type: binding
Details: Table S2; 10 µM inhibitors; read-out: ΔTm Initial Screen
Method: The ERK3 kinase domain at 2 µM in 10 mM HEPES pH 7.5 and 500 mM NaCl was mixed with 10 µM inhibitors and SyPRO Orange at 1:1000 dilution. After 10 min incubation at room temperature, the fluorescence signal, which increases upon the temperature-dependent unfolding of ERK3 protein, was measured using Mx3005p real-time PCR machine (Stratagene, San Diego, CA, USA). The ∆Tm shifts were calculated using protocol described previously.
Observation type: ΔTm at 10 µM (°C)
Hi! Could you send only the number? It should be in °C, unit omitted.

Tell me reported ΔTm at 10 µM for C=CC(=O)Nc1cccc(Nc2nc(Nc3ccc(Oc4ccnc(C(=O)NC)c4)cc3)ncc2F)c1 [CNX-774] , tested with ERK3 kinase domain (Homo sapiens).
1.04

Tell me reported ΔTm at 10 µM for O=C(/C=C/c1ccc(O)c(O)c1)c1ccc(O)cc1O [Butein] , tested with ERK3 kinase domain (Homo sapiens).
1.15

Tell me reported ΔTm at 10 µM for CCCN1CCC(c2ccc(Nc3nc(Nc4cc(F)ccc4C(N)=O)c4cc[nH]c4n3)c(OC)c2)CC1 [GSK1326255A] , tested with ERK3 kinase domain (Homo sapiens).
1.12

Tell me reported ΔTm at 10 µM for O=C(Nc1ccc(Nc2nccc(Nc3cc(C4CCCC4)[nH]n3)n2)cc1)Nc1cccc(C(F)(F)F)c1 [CD532] , tested with ERK3 kinase domain (Homo sapiens).
1.7

Tell me reported ΔTm at 10 µM for CS(=O)(=O)CCNCc1ccc(-c2ccc3ncnc(Nc4ccc(OCc5ccccc5)c(Br)c4)c3c2)o1 [GW580496A] , tested with ERK3 kinase domain (Homo sapiens).
1.04

Tell me reported ΔTm at 10 µM for COc1cccc(-c2c[nH]c3c(N/N=C/c4ccncc4)ncnc23)c1 [GW814408X] , tested with ERK3 kinase domain (Homo sapiens).
2.55

Tell me reported ΔTm at 10 µM for CN1CCN(c2ccc(Nc3nccc(-c4cnn5ncccc45)n3)cc2C#N)CC1 [CAF078] , tested with ERK3 kinase domain (Homo sapiens).
3.83

Tell me reported ΔTm at 10 µM for CNC(=O)c1nn(C)c2c1C(C)(C)Cc1cnc(Nc3ccc(N4CCN(C)CC4)cc3)nc1-2 [Milciclib] , tested with ERK3 kinase domain (Homo sapiens).
2.11

Tell me reported ΔTm at 10 µM for CCn1cc(-c2ccnc3[nH]c(-c4cccc(CN(C)C)c4)cc23)c(-c2ccc(NC(=O)N(C)C)cc2)n1 [GSK1070916] , tested with ERK3 kinase domain (Homo sapiens).
1.45

Tell me reported ΔTm at 10 µM for CN1CCN(c2ccc(Nc3nccc(-c4cnn5ncccc45)n3)cc2F)CC1 [CAF052] , tested with ERK3 kinase domain (Homo sapiens).
2.81

Tell me reported ΔTm at 10 µM for C=CC(=O)Nc1cc2c(Nc3ccc(F)c(Cl)c3)ncnc2cc1OCCCN1CCOCC1 [Canertinib] , tested with ERK3 kinase domain (Homo sapiens).
2.05

Tell me reported ΔTm at 10 µM for O=C(Nc1c[nH]nc1-c1nc2ccc(CN3CCOCC3)cc2[nH]1)NC1CC1 [AT9283] , tested with ERK3 kinase domain (Homo sapiens).
3.08
